condition summary: buffer; pH 7.4; 200.0 µM
# cutoff 40 µg/mL applies to solubility kinetic; >= gives Satisfied, < gives Not satisfied

Check this molecule for solubility kinetic at or above 40 µg/mL: CC(=O)c1cccc(NC(=O)CCNC(=O)c2ccccc2Cl)c1
Satisfied

Does solubility kinetic meet or surpass 40 µg/mL for COc1cc(OC)cc(C(=O)NCCNC(=O)c2ccccn2)c1 ?
Satisfied

Say whether CC(NC(=O)/C(C#N)=C/c1ccco1)c1ccccc1 (stereo unspecified) shows solubility kinetic of 40 µg/mL or more.
Not satisfied

Is solubility kinetic for O=c1[nH]cc(S(=O)(=O)Nc2ccc3c(c2)OCO3)c(=O)[nH]1 at or above 40 µg/mL?
Satisfied

Is solubility kinetic for Cc1noc(N)c1C1(O)C(=O)Nc2c(Cl)cc(Cl)cc21 (stereo unspecified) at or above 40 µg/mL?
Satisfied

Given the entry COc1cc2c(cc1OC)C(c1cccc([N+](=O)[O-])c1)=NCC2 , answer whether its solubility kinetic meets or surpasses 40 µg/mL.
Satisfied

Say whether CCC(C)C(NC(=O)c1ccccc1NC(=O)c1ccccc1)C(=O)O (stereo unspecified) shows solubility kinetic of 40 µg/mL or more.
Satisfied

Identify whether the reported solubility kinetic of the following molecule is 40 µg/mL or greater: COC(=O)c1ccc(NC(=O)C2CC3CCC2C3)cc1 (stereo unspecified)
Not satisfied

hey, is solubility kinetic for this one >= 40 µg/mL? CCOc1ncccc1C(=O)OCC(=O)NCc1ccccc1
Satisfied

Confirm if solubility kinetic reported for the molecule COc1cc(Cl)c(C)cc1NC(=O)CCN1C(=O)NC(C)(C)C1=O is 40 µg/mL or above.
Satisfied

Is solubility kinetic for Cc1ccc2c(c1)C(=O)C(=O)N2CCCOc1ccccc1 at or above 40 µg/mL?
Not satisfied
